Just for reference, patent US11912682B2 is where these values come from.

Some compounds, each annotated with its measured pIC50.
Target: Full length wild-type cereblon CRBN (Homo sapiens (Human))
Assay: fluorescence polarization (FP) assay, cereblon binding
Settings: read-out: rFP IC50
pIC50: −log10 of the molar value.

{"compound": "CN1CCN(c2ccc(NC(=O)OCc3ccc4c(c3)C(=O)N(C3CCC(=O)NC3=O)C4)cn2)CC1 (centres unmarked)", "pIC50": "> 6.30"}
{"compound": "Cc1ccc(NC(=O)OCc2ccc3c(c2)C(=O)N(C2CCC(=O)NC2=O)C3)cc1C (centres unmarked)", "pIC50": "> 6.30"}
{"compound": "O=C1CCC(N2Cc3ccc(COC(=O)Nc4cc(Cl)cc(OC(F)F)c4)cc3C2=O)C(=O)N1 (centres unmarked)", "pIC50": "< 5.77"}
{"compound": "O=C1CCC(N2Cc3ccc(COC(=O)Nc4ccc(N5CCC(F)(F)CC5)nc4)cc3C2=O)C(=O)N1 (centres unmarked)", "pIC50": "> 6.30"}
{"compound": "COc1cc(NC(=O)OCc2ccc3c(c2)C(=O)N(C2CCC(=O)NC2=O)C3)ccc1C (centres unmarked)", "pIC50": "< 5.77"}
{"compound": "Cc1cc(NC(=O)OCc2ccc3c(c2)C(=O)N(C2CCC(=O)NC2=O)C3)cc(C)c1C#N (centres unmarked)", "pIC50": "> 6.30"}
{"compound": "C[C@H]1CCCN1c1ccc(NC(=O)OCc2ccc3c(c2)C(=O)N(C2CCC(=O)NC2=O)C3)cn1 (some centres unmarked)", "pIC50": "> 6.30"}
{"compound": "O=C1CCC(N2Cc3ccc(COC(=O)Nc4ccc5c(c4)CC(F)(F)O5)cc3C2=O)C(=O)N1 (centres unmarked)", "pIC50": "> 6.30"}
{"compound": "O=C1CCC(N2Cc3ccc(COC(=O)N4CCN(c5ccccc5)CC4)cc3C2=O)C(=O)N1 (centres unmarked)", "pIC50": "> 6.30"}
{"compound": "O=C1CCC(N2Cc3ccc(COC(=O)Nc4cc(Cl)cc(OCC5CCNC5)c4)cc3C2=O)C(=O)N1 (centres unmarked)", "pIC50": "> 6.30"}
{"compound": "CCc1cc(NC(=O)OCc2ccc3c(c2)C(=O)N(C2CCC(=O)NC2=O)C3)ccn1 (centres unmarked)", "pIC50": "> 6.30"}

---

Target: GSPT1 (Homo sapiens (Human), UniProt P15170+Q96SW2)
Sequence (P15170 whole entry): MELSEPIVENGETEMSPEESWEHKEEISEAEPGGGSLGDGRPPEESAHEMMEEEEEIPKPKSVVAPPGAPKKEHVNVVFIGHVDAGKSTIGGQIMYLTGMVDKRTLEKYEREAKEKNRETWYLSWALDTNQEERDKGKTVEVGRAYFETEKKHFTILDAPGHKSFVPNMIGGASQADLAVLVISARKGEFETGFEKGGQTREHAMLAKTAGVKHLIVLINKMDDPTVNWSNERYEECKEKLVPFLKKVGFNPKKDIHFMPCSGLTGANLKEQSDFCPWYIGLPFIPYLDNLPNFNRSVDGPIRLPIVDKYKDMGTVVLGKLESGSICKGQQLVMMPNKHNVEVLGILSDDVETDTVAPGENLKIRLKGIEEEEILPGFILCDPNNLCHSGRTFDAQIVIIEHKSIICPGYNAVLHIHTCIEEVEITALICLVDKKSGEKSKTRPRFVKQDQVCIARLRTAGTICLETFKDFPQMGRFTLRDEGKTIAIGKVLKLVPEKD
Sequence (Q96SW2 whole entry): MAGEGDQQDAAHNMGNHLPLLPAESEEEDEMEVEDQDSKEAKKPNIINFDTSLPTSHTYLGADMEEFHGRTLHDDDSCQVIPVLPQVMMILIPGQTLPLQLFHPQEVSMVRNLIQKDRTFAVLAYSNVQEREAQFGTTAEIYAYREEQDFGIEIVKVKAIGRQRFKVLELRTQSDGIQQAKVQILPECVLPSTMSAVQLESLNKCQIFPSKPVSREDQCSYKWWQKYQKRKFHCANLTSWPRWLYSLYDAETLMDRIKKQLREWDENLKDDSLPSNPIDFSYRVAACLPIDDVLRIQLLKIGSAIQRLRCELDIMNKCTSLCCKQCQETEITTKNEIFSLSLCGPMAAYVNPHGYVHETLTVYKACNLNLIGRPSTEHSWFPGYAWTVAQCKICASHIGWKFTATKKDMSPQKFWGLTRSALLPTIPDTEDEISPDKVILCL
Sequence (Q16531 2-1140 partner): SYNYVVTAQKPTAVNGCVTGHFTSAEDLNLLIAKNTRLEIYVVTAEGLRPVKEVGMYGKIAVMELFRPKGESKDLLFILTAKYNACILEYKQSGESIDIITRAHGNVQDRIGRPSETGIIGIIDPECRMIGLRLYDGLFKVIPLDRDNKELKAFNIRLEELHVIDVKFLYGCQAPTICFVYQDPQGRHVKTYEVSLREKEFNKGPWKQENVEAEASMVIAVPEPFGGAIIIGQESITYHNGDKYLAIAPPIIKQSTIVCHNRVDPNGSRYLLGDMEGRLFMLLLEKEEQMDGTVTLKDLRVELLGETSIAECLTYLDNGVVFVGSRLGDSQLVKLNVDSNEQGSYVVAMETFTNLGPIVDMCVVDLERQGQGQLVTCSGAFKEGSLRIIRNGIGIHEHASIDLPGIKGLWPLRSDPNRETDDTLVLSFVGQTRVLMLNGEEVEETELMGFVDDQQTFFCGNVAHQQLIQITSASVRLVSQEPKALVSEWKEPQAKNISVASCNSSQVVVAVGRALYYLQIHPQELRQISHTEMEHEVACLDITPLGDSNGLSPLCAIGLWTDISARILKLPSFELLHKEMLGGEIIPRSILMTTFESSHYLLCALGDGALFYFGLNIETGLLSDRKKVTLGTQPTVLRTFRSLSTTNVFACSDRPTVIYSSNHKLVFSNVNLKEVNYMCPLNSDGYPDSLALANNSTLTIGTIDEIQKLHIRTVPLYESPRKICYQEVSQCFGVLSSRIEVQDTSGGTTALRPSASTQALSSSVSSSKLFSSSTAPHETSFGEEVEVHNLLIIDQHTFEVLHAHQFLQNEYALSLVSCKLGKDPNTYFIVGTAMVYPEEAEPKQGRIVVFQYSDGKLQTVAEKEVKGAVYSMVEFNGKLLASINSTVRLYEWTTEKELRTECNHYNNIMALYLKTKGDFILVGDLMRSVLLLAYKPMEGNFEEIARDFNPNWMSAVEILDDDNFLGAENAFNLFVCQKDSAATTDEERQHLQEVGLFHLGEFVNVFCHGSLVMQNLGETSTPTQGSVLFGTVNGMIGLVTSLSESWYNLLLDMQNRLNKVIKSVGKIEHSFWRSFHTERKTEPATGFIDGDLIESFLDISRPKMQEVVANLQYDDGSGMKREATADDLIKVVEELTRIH
Assay: immunofluorescence assay for GSPT1 degradation in CAL-51 cells (Example 10)
Type: cell-based
Settings: CAL-51 cells, 6 h; read-out: IF Class (GSPT1 degradation DC50)
Some compounds, each annotated with its measured DC50.

{"compound": "C[C@@H]1CCCN1c1ccc(NC(=O)OCc2ccc3c(c2)C(=O)N(C2CCC(=O)NC2=O)C3)nc1 (stereo partly shown)", "DC50": "30 to 300 nM"}
{"compound": "CC(C)(O)c1ccc(NC(=O)OCc2ccc3c(c2)C(=O)N(C2CCC(=O)NC2=O)C3)cc1 (stereo not shown)", "DC50": "> 300 nM"}
{"compound": "CCCOc1cc(NC(=O)OCc2ccc3c(c2)C(=O)N(C2CCC(=O)NC2=O)C3)c(F)cc1C (stereo not shown)", "DC50": "< 30 nM"}
{"compound": "Cc1cc(F)c(NC(=O)OCc2ccc3c(c2)C(=O)N(C2CCC(=O)NC2=O)C3)cc1F (stereo not shown)", "DC50": "> 300 nM"}
